Test system: Streptococcus pneumoniae
Assay: Antibacterial activity against erythromycin-resistant Streptococcus pneumoniae A22072 harboring mef gene after 24 h by NCCLS broth microdilution method
Type: functional
Conditions: A22072, 24 h

COMPOUND	UNIT TEXT	MIC
CC[C@H]1OC(=O)[C@H](C)C(=O)[C@H](C)[C@@H](O[C@@H]2O[C@H](C)C[C@H](N(C)C)[C@H]2O)[C@](C)(OC)C[C@@H](C)C(=O)[C@H](C)[C@@H](OC(=O)NCCNC(=O)/C=C/c2ccccc2)[C@]1(C)O	µg/mL	4
CC[C@H]1OC(=O)[C@H](C)C(=O)[C@H](C)[C@@H](O[C@@H]2O[C@H](C)C[C@H](N(C)C)[C@H]2O)[C@](C)(OC)C[C@@H](C)C(=O)[C@H](C)[C@@H](OC(=O)NCCNC(=O)c2ccc(C(C)(C)C)cc2)[C@]1(C)O	µg/mL	4
CC[C@H]1OC(=O)[C@H](C)C(=O)[C@H](C)[C@@H](O[C@@H]2O[C@H](C)C[C@H](N(C)C)[C@H]2O)[C@](C)(OC)C[C@@H](C)C(=O)[C@H](C)[C@@H](OC(=O)NCCNC(=O)/C=C/c2ccc(Br)cc2)[C@]1(C)O	µg/mL	2
CC[C@H]1OC(=O)[C@H](C)C(=O)[C@H](C)[C@@H](O[C@@H]2O[C@H](C)C[C@H](N(C)C)[C@H]2O)[C@](C)(OC)C[C@@H](C)C(=O)[C@H](C)[C@@H](OC(=O)NCCNC(=O)/C=C/c2ccc(C)cc2)[C@]1(C)O	µg/mL	4
CC[C@H]1OC(=O)[C@H](C)C(=O)[C@H](C)[C@@H](O[C@@H]2O[C@H](C)C[C@H](N(C)C)[C@H]2O)[C@](C)(OC)C[C@@H](C)C(=O)[C@H](C)[C@@H](OC(=O)NCCNC(=O)c2cccc(O)c2)[C@]1(C)O	µg/mL	16
CC[C@H]1OC(=O)[C@H](C)C(=O)[C@H](C)[C@@H](O[C@@H]2O[C@H](C)C[C@H](N(C)C)[C@H]2O)[C@](C)(OC)C[C@@H](C)C(=O)[C@H](C)[C@@H](OC(=O)NCCNC(=O)c2ccc([N+](=O)[O-])cc2N)[C@]1(C)O	µg/mL	0.5
CC[C@H]1OC(=O)[C@H](C)C(=O)[C@H](C)[C@@H](O[C@@H]2O[C@H](C)C[C@H](N(C)C)[C@H]2O)[C@](C)(OC)C[C@@H](C)C(=O)[C@H](C)[C@@H](OC(=O)NCCNC(=O)/C=C/c2cccc3ccccc23)[C@]1(C)O	µg/mL	2
CC[C@H]1OC(=O)[C@H](C)C(=O)[C@H](C)[C@@H](O[C@@H]2O[C@H](C)C[C@H](N(C)C)[C@H]2O)[C@](C)(OC)C[C@@H](C)C(=O)[C@H](C)[C@@H](OC(=O)NCCNC(=O)c2cccc(C)c2)[C@]1(C)O	µg/mL	8
CC[C@H]1OC(=O)[C@H](C)C(=O)[C@H](C)[C@@H](O[C@@H]2O[C@H](C)C[C@H](N(C)C)[C@H]2O)[C@](C)(OC)C[C@@H](C)C(=O)[C@H](C)[C@@H](OC(=O)NCCNC(=O)/C=C/c2ccccc2Cl)[C@]1(C)O	µg/mL	2
CC[C@H]1OC(=O)[C@H](C)C(=O)[C@H](C)[C@@H](O[C@@H]2O[C@H](C)C[C@H](N(C)C)[C@H]2O)[C@](C)(OC)C[C@@H](C)C(=O)[C@H](C)[C@@H](OC(=O)NCCNC(=O)/C=C/c2ccc(Cl)cc2)[C@]1(C)O	µg/mL	0.5
CC[C@H]1OC(=O)[C@H](C)C(=O)[C@H](C)[C@@H](O[C@@H]2O[C@H](C)C[C@H](N(C)C)[C@H]2O)[C@](C)(OC)C[C@@H](C)C(=O)[C@H](C)[C@@H](OC(=O)NCCNC(=O)c2ccc(Br)cc2)[C@]1(C)O	µg/mL	1
CC[C@H]1OC(=O)[C@H](C)C(=O)[C@H](C)[C@@H](O[C@@H]2O[C@H](C)C[C@H](N(C)C)[C@H]2O)[C@](C)(OC)C[C@@H](C)C(=O)[C@H](C)[C@@H](OC(=O)NCCNC(=O)c2ccc(OC)cc2)[C@]1(C)O	µg/mL	1
CC[C@H]1OC(=O)[C@H](C)[C@@H](O[C@H]2C[C@@](C)(OC)[C@@H](O)[C@H](C)O2)[C@H](C)[C@@H](O[C@@H]2O[C@H](C)C[C@H](N(C)C)[C@H]2O)[C@](C)(O)C[C@@H](C)CN(C)[C@H](C)[C@@H](O)[C@]1(C)O [AZITHROMYCIN]	µg/mL	2
CC[C@H]1OC(=O)[C@H](C)C(=O)[C@H](C)[C@@H](O[C@@H]2O[C@H](C)C[C@H](N(C)C)[C@H]2O)[C@](C)(OC)C[C@@H](C)C(=O)[C@H](C)[C@@H](OC(=O)NCCNC(=O)/C=C/c2ccc(Cl)cc2Cl)[C@]1(C)O	µg/mL	2
CC[C@H]1OC(=O)[C@H](C)C(=O)[C@H](C)[C@@H](O[C@@H]2O[C@H](C)C[C@H](N(C)C)[C@H]2O)[C@](C)(OC)C[C@@H](C)C(=O)[C@H](C)[C@@H](OC(=O)NCCNC(=O)c2ccc([N+](=O)[O-])cc2)[C@]1(C)O	µg/mL	1
CC[C@H]1OC(=O)[C@H](C)C(=O)[C@H](C)[C@@H](O[C@@H]2O[C@H](C)C[C@H](N(C)C)[C@H]2O)[C@](C)(OC)C[C@@H](C)C(=O)[C@H](C)[C@@H](OC(=O)NCCNC(=O)c2ccc(C)cc2)[C@]1(C)O	µg/mL	2

====

Listing of entries alongside the reported MIC.
System: Pseudomonas aeruginosa
Experiment: Antibacterial activity against penicillin-susceptible Pseudomonas aeruginosa ATCC 27853 after 24 h by NCCLS broth microdilution method
Type: functional
Conditions: ATCC 27853, 24 h

STRUCTURE STRING	READING QUALIFIER	MIC / µg/mL
CC[C@H]1OC(=O)[C@H](C)C(=O)[C@H](C)[C@@H](O[C@@H]2O[C@H](C)C[C@H](N(C)C)[C@H]2O)[C@](C)(OC)C[C@@H](C)C(=O)[C@H](C)[C@@H](OC(=O)NCCNC(=O)c2cccc(O)c2)[C@]1(C)O	>	128
CC[C@H]1OC(=O)[C@H](C)C(=O)[C@H](C)[C@@H](O[C@@H]2O[C@H](C)C[C@H](N(C)C)[C@H]2O)[C@](C)(OC)C[C@@H](C)C(=O)[C@H](C)[C@@H](OC(=O)NCCNC(=O)/C=C/c2ccc(O)cc2)[C@]1(C)O	=	128
CC[C@H]1OC(=O)[C@H](C)C(=O)[C@H](C)[C@@H](O[C@@H]2O[C@H](C)C[C@H](N(C)C)[C@H]2O)[C@](C)(OC)C[C@@H](C)C(=O)[C@H](C)[C@@H](OC(=O)NCCNC(=O)c2cc([N+](=O)[O-])cc([N+](=O)[O-])c2)[C@]1(C)O	=	128
CC[C@H]1OC(=O)[C@H](C)C(=O)[C@H](C)[C@@H](O[C@@H]2O[C@H](C)C[C@H](N(C)C)[C@H]2O)[C@](C)(OC)C[C@@H](C)C(=O)[C@H](C)[C@@H](OC(=O)NCCNC(=O)c2ccccc2O)[C@]1(C)O	=	128

====

Test system: Pseudomonas aeruginosa
Experiment: Antibacterial activity against penicillin-susceptible Pseudomonas aeruginosa ATCC 27853 after 24 h by NCCLS broth microdilution method
Type: functional
Conditions: ATCC 27853, 24 h
OBSERVABLE: MIC

STRUCTURE STRING	TESTED SYSTEM	RESULT
CC[C@H]1OC(=O)[C@H](C)C(=O)[C@H](C)[C@@H](O[C@@H]2O[C@H](C)C[C@H](N(C)C)[C@H]2O)[C@](C)(OC)C[C@@H](C)C(=O)[C@H](C)[C@@H](OC(=O)NCCNC(=O)c2ccc(Cl)cc2)[C@]1(C)O	Pseudomonas aeruginosa	128 µg/mL
CC[C@H]1OC(=O)[C@H](C)C(=O)[C@H](C)[C@@H](O[C@@H]2O[C@H](C)C[C@H](N(C)C)[C@H]2O)[C@](C)(OC)C[C@@H](C)C(=O)[C@H](C)[C@@H](OC(=O)NCCNC(=O)c2ccc(F)cc2)[C@]1(C)O	Pseudomonas aeruginosa	128 µg/mL
CC[C@H]1OC(=O)[C@H](C)C(=O)[C@H](C)[C@@H](O[C@@H]2O[C@H](C)C[C@H](N(C)C)[C@H]2O)[C@](C)(OC)C[C@@H](C)C(=O)[C@H](C)[C@@H](OC(=O)NCCNC(=O)/C=C/c2ccco2)[C@]1(C)O	Pseudomonas aeruginosa	128 µg/mL
CC[C@H]1OC(=O)[C@H](C)C(=O)[C@H](C)[C@@H](O[C@@H]2O[C@H](C)C[C@H](N(C)C)[C@H]2O)[C@](C)(OC)C[C@@H](C)C(=O)[C@H](C)[C@@H](OC(=O)NCCNC(=O)/C=C/c2ccc([N+](=O)[O-])cc2)[C@]1(C)O	Pseudomonas aeruginosa	128 µg/mL
CC[C@H]1OC(=O)[C@H](C)[C@@H](O[C@H]2C[C@@](C)(OC)[C@@H](O)[C@H](C)O2)[C@H](C)[C@@H](O[C@@H]2O[C@H](C)C[C@H](N(C)C)[C@H]2O)[C@](C)(O)C[C@@H](C)CN(C)[C@H](C)[C@@H](O)[C@]1(C)O	Pseudomonas aeruginosa	16 µg/mL
CC[C@H]1OC(=O)[C@H](C)C(=O)[C@H](C)[C@@H](O[C@@H]2O[C@H](C)C[C@H](N(C)C)[C@H]2O)[C@](C)(OC)C[C@@H](C)C(=O)[C@H](C)[C@@H](OC(=O)NCCNC(=O)c2ccc([N+](=O)[O-])cc2)[C@]1(C)O	Pseudomonas aeruginosa	128 µg/mL
CC[C@H]1OC(=O)[C@H](C)C(=O)[C@H](C)[C@@H](O[C@@H]2O[C@H](C)C[C@H](N(C)C)[C@H]2O)[C@](C)(OC)C[C@@H](C)C(=O)[C@H](C)[C@@H](OC(=O)NCCNC(=O)/C=C/c2ccc(Cl)cc2)[C@]1(C)O	Pseudomonas aeruginosa	> 128 µg/mL
CC[C@H]1OC(=O)[C@H](C)C(=O)[C@H](C)[C@@H](O[C@@H]2O[C@H](C)C[C@H](N(C)C)[C@H]2O)[C@](C)(OC)C[C@@H](C)C(=O)[C@H](C)[C@@H](OC(=O)NCCNC(=O)c2ccccc2)[C@]1(C)O	Pseudomonas aeruginosa	> 128 µg/mL
CC[C@H]1OC(=O)[C@H](C)C(=O)[C@H](C)[C@@H](O[C@@H]2O[C@H](C)C[C@H](N(C)C)[C@H]2O)[C@](C)(OC)C[C@@H](C)C(=O)[C@H](C)[C@@H](OC(=O)NCCNC(=O)c2ccc(C)cc2)[C@]1(C)O	Pseudomonas aeruginosa	> 128 µg/mL
CC[C@H]1OC(=O)[C@H](C)C(=O)[C@H](C)[C@@H](O[C@@H]2O[C@H](C)C[C@H](N(C)C)[C@H]2O)[C@](C)(OC)C[C@@H](C)C(=O)[C@H](C)[C@@H](OC(=O)NCCNC(=O)c2ccc(C(C)(C)C)cc2)[C@]1(C)O	Pseudomonas aeruginosa	> 128 µg/mL
CC[C@H]1OC(=O)[C@H](C)C(=O)[C@H](C)[C@@H](O[C@@H]2O[C@H](C)C[C@H](N(C)C)[C@H]2O)[C@](C)(OC)C[C@@H](C)C(=O)[C@H](C)[C@@H](OC(=O)NCCNC(=O)/C=C/c2ccc(F)cc2)[C@]1(C)O	Pseudomonas aeruginosa	> 128 µg/mL
CC[C@H]1OC(=O)[C@H](C)C(=O)[C@H](C)[C@@H](O[C@@H]2O[C@H](C)C[C@H](N(C)C)[C@H]2O)[C@](C)(OC)C[C@@H](C)C(=O)[C@H](C)[C@@H](OC(=O)NCCNC(=O)/C=C/c2cccc3ccccc23)[C@]1(C)O	Pseudomonas aeruginosa	> 128 µg/mL
